- Test system: CD2F1 mice, L1210 leukemia ip, survival T/C
- method summary: NCI In Vivo Anticancer Drug Screen. Data for tumor model L1210 Leukemia (intraperitoneal) in CD2F1 (CDF1) mice
- measurement conditions: endpoint: mean survival time; dose: 100.0 mg/kg/injection; schedule: Q01DX009 (ip); vehicle: saline sonified; higher = longer survival
Inconclusive results and toxic doses are left out.
measured quantity: T/C

Some compounds with recorded T/C:
# chemical string, system, T/C
records = [
    ("Cc1ccc(NC(=O)Nc2ccccc2C(N)=O)cc1", "CD2F1 mice, L1210 leukemia ip, survival T/C", "97 % of control"),
    ("CCOc1ccncc1[N+](=O)[O-]", "CD2F1 mice, L1210 leukemia ip, survival T/C", "96 % of control"),
    ("NC(=O)/C=C1\\NC(=O)CS1", "CD2F1 mice, L1210 leukemia ip, survival T/C", "97 % of control"),
]

Could you now consider this next compound?
Please look up its T/C: CC(=O)N(C)[Si](C)(C)C 98 % of control

---

- Tested on: CD2F1 mice, L1210 leukemia ip, survival T/C
- method summary: NCI In Vivo Anticancer Drug Screen. Data for tumor model L1210 Leukemia (intraperitoneal) in CD2F1 (CDF1) mice
- measurement conditions: endpoint: mean survival time; dose: 400.0 mg/kg/injection; schedule: Q04DX003 (ip); vehicle: saline sonified; higher = longer survival
Toxic doses and inconclusive results are not listed.
measured quantity: T/C

Guide cases for T/C, answers given:
# compound, T/C
records = [
    ("CC(=O)c1ccc2c(c1)Cc1cc(C(C)=O)ccc1-2", "98 % of control"),
    ("Clc1nc(Cl)c(Nc2ccn[nH]2)nc1Cl", "95 % of control"),
    ("CC(C)(CC(=O)O)c1ccccc1", "97 % of control"),
]

Return reported T/C; argument: CC(C)C12CCC(=O)C=C1CCCC2O (stereo unspecified) 97 % of control

Any idea what its T/C is? The compound is CN=C1CCCCN1 103 % of control

I'd like to know its T/C. The compound in question is Cc1ccc2c(c1Oc1ccc(S(N)(=O)=O)cc1)C(=O)c1ccccc1C2=O 107 % of control

---

- Tested on: CD2F1 mice, L1210 leukemia ip, survival T/C
- method summary: NCI In Vivo Anticancer Drug Screen. Data for tumor model L1210 Leukemia (intraperitoneal) in CD2F1 (CDF1) mice
- measurement conditions: endpoint: mean survival time; dose: 50.0 mg/kg/injection; schedule: Q01DX001 (ip); vehicle: saline with Tween-80; higher = longer survival
Inconclusive results and toxic doses are left out.
Each item that follows carries a reported T/C.

# molecule, system, T/C
records = [
    ("Nc1nc(=S)c2n[nH]nc2[nH]1", "CD2F1 mice, L1210 leukemia ip, survival T/C", "104 % of control"),
    ("C1=C(c2ccccc2)NN=C(c2ccccc2)C1c1ccccc1 (centres undefined)", "CD2F1 mice, L1210 leukemia ip, survival T/C", "87 % of control"),
    ("Cc1ccc(/C=C(/F)OC(C)(C)C)cc1", "CD2F1 mice, L1210 leukemia ip, survival T/C", "97 % of control"),
    ("Nc1ccc(OCc2nc(N)nc(N)c2-c2ccc(Cl)cc2)cc1", "CD2F1 mice, L1210 leukemia ip, survival T/C", "95 % of control"),
    ("C/C(=N/N(C)C)c1ccc2ccccc2c1", "CD2F1 mice, L1210 leukemia ip, survival T/C", "97 % of control"),
    ("Nc1cc(Sc2ccc(Cl)cc2)nc(N)n1", "CD2F1 mice, L1210 leukemia ip, survival T/C", "102 % of control"),
    ("O=C(O)c1cc(Cl)c(Cl)cn1", "CD2F1 mice, L1210 leukemia ip, survival T/C", "97 % of control"),
    ("CC(c1ccccc1)n1cncc1CN1CCOCC1 (centres undefined)", "CD2F1 mice, L1210 leukemia ip, survival T/C", "102 % of control"),
]

Next molecule, T/C to be filled in.
Entry under review: C=Cc1nnnn1C12CC3CC(CC(C3)C1)C2 . Reported T/C? 106 % of control
